Known half-life at 1 µM of a selection of compounds
assay: Metabolic stability in mouse liver microsomes assessed as half life of compound at 1 uM and measured for 60 mins in presence of NADPH by HPLC-MS/MS analysis; type: ADME, Microsome
Record the value in min, omitting the unit from your answer.

O=C(O)C1CCN(C(=O)CC2Cc3ccc(-c4cc(F)cc(OC(F)F)c4)cc3N2S(=O)(=O)c2cccc(C(F)(F)F)c2)CC1 (stereo not given); 30.1
O=C(O)CC1CN(S(=O)(=O)c2cccc(C(F)(F)F)c2)c2cc(-c3cc(F)cc(OC(F)F)c3)ccc21 (stereo not given); 45.6
O=C(CC1Cc2ccc(-c3cc(F)cc(OC(F)F)c3)cc2N1S(=O)(=O)c1cccc(C(F)(F)F)c1)N1CC2(COC2)C1 (stereo not given); 0.7

Data request: Quick one: half-life at 1 µM of O=S(=O)(c1cccc(C(F)(F)F)c1)N1CCc2ccc(-c3cc(F)cc(OC(F)F)c3)cc21 ?
Data returned: 11.4

Data request: Looking for the measured half-life at 1 µM of O=C(CC1Cc2ccc(-c3cc(F)cc(OC(F)F)c3)cc2N1S(=O)(=O)c1cccc(C(F)(F)F)c1)N1CCS(=O)(=O)CC1 (stereo not given) , can you help?
Data returned: 2

Data request: Entry O=S(=O)(c1cccc(C(F)(F)F)c1)n1ccc2ccc(-c3cc(F)cc(OC(F)F)c3)cc21 : reported half-life at 1 µM = ?
Data returned: 39.1

Data request: Please report the recorded half-life at 1 µM for O=C(O)CCC1CN(S(=O)(=O)c2cccc(C(F)(F)F)c2)c2cc(-c3cc(F)cc(OC(F)F)c3)ccc21 (stereo not given) .
Data returned: 24.5

Data request: So what does the record say about half-life at 1 µM for O=S(=O)(c1cccc(C(F)(F)F)c1)N1CCc2ccc(OCc3c(F)cccc3Cl)cc21 ?
Data returned: 2.9

Data request: Would you kindly share the measured half-life at 1 µM for O=C(O)CCC1Cc2ccc(-c3cc(F)cc(OC(F)F)c3)cc2N1S(=O)(=O)c1cccc(C(F)(F)F)c1 (stereo not given) ?
Data returned: 60.9

Data request: Please report the recorded half-life at 1 µM for O=C(CC1Cc2ccc(-c3cc(F)cc(OC(F)F)c3)cc2N1S(=O)(=O)c1cccc(C(F)(F)F)c1)N1CCC(O)CC1 (stereo not given) .
Data returned: 0.7

Data request: // query half-life at 1 µM value for entry O=C(O)C1CN(C(=O)CC2Cc3ccc(-c4cc(F)cc(OC(F)F)c4)cc3N2S(=O)(=O)c2cccc(C(F)(F)F)c2)C1 (stereo not given)
Data returned: 65.9

Data request: Sample O=C(O)CCCC1CN(S(=O)(=O)c2cccc(C(F)(F)F)c2)c2cc(-c3cc(F)cc(OC(F)F)c3)ccc21 (stereo not given) — what was its half-life at 1 µM?
Data returned: 34.2

Data request: Suppose we examine the compound O=C(O)CCCC1Cc2ccc(-c3cc(F)cc(OC(F)F)c3)cc2N1S(=O)(=O)c1cccc(C(F)(F)F)c1 (stereo not given) ; what half-life at 1 µM value has been reported?
Data returned: 93.3

Data request: Query (compound): O=C(O)CC1Cc2ccc(-c3cc(F)cc(OC(F)F)c3)cc2N1S(=O)(=O)c1cccc(C(F)(F)F)c1 (racemic) ; field requested: half-life at 1 µM
Data returned: 113
